molecular target: hERG (KCNH2) (Homo sapiens); experiment: Inhibition of human ERG assessed as Rb efflux at 1.5 ug/ml
Sequence (Q12809 whole entry): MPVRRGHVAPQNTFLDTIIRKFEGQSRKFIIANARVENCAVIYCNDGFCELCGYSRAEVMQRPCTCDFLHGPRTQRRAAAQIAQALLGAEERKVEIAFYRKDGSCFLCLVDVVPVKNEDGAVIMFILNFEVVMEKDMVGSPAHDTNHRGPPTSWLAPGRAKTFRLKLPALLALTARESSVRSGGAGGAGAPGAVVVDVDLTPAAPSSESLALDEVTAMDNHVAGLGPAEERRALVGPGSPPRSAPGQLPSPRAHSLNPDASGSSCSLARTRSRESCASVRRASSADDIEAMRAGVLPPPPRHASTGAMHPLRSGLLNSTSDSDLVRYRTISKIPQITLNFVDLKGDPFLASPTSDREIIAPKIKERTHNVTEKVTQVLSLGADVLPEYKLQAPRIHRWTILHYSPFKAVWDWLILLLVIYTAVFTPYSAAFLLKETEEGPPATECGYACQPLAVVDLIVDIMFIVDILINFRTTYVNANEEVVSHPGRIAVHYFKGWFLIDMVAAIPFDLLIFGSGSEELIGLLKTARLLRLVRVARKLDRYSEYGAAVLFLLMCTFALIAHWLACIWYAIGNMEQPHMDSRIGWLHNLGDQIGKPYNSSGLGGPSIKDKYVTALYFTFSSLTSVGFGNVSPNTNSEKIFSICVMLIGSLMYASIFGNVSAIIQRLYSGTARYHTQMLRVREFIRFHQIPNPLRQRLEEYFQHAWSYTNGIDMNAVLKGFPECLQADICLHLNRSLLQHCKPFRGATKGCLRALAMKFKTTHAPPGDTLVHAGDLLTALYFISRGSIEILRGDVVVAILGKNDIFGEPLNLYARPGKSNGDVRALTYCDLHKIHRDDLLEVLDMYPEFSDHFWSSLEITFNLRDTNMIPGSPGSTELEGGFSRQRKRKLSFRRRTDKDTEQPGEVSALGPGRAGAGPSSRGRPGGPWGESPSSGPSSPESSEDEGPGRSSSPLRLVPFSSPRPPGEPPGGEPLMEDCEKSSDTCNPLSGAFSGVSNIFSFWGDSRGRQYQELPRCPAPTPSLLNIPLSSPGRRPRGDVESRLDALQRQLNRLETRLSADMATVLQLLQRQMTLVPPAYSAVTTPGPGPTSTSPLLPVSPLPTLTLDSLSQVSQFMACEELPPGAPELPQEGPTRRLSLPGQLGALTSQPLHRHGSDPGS

structure	tested.target	inhibition at 1.5 ug/ml, %
CSc1cn2c(-c3cn[nH]c3)cnc2c(Nc2cc(C)ns2)n1	hERG (KCNH2) (Homo sapiens)	8.7

----------
assay: Aqueous solubility of the compound; format: physicochemical; settings: buffer

structure	solubility (µM)
CSc1cn2c(-c3cn[nH]c3)cnc2c(Nc2cc(C)ns2)n1	25

----------
molecular target: Calcium/calmodulin-dependent protein kinase type IV (Homo sapiens, UniProt Q16566); test: Inhibition of Camk4
Sequence (Q16566 whole entry): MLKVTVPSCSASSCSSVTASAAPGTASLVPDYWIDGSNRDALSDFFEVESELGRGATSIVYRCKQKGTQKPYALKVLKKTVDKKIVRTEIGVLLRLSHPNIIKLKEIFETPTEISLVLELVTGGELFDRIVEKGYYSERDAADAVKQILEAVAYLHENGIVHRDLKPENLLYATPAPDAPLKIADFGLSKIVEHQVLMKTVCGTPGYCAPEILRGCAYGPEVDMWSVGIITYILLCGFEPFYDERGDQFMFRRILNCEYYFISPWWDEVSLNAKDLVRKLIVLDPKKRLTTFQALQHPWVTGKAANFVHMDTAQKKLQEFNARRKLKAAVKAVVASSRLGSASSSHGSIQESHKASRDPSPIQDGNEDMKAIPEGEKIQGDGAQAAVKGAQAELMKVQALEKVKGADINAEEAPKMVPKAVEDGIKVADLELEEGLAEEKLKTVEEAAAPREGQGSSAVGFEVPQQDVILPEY

structure	IC50
CSc1cn2c(-c3cn[nH]c3)cnc2c(Nc2cc(C)ns2)n1	> 10 µM
